Cited source: ChEMBL document CHEMBL3227939

- Test system: L1210
- ASSAY_COMMENT: Inhibition of DNA synthesis in mouse L1210 cells
- Type: functional
- CONDITION_LABEL: read-out: ED50 (the source's name)
EC50 by entry:
Note: unit nM is implicit; provide only the numeric part.

>  <ENTRY_SMILES>
COc1cccc2c1C(=O)c1c(O)c3c(c(O)c1C2=O)C[C@@](O)(C(=O)C(C)C)C[C@@H]3O[C@H]1C[C@H](N)[C@H](O)[C@H](C)O1

>  <EXPERIMENTAL_TARGET>
L1210

>  <EC50 / nM>
1000

$$$$
>  <ENTRY_SMILES>
COc1cccc2c1C(=O)c1c(O)c3c(c(O)c1C2=O)C[C@@](O)(C(C)=O)C[C@@H]3O[C@H]1C[C@H](N)[C@H](O)[C@H](C)O1

>  <EXPERIMENTAL_TARGET>
L1210

>  <EC50 / nM>
660

$$$$

# ---- query compound ----
# EC50 (compound: COc1cccc2c1C(=O)c1c(O)c3c(c(O)c1C2=O)C[C@@](O)(C(=O)CO)C[C@@H]3O[C@H]1C[C@H](N)[C@H](O)[C@H](C)O1 ) is 1500

====

- System: L1210
- ASSAY_COMMENT: Inhibition of DNA synthesis in mouse L1210 cells
- Format: functional
- CONDITION_LABEL: read-out: ED50 (the source's name)
ASSAY_ENDPOINT: pEC50
Keep it numeric: pEC50 is minus log10 of the concentration in mol/L.

Example compounds with recorded pEC50:
>  <ENTRY_SMILES>
CCC(=O)[C@]1(O)Cc2c(O)c3c(c(O)c2[C@@H](O[C@H]2C[C@H](N)[C@H](O)[C@H](C)O2)C1)C(=O)c1c(OC)cccc1C3=O

>  <pEC50>
6.17

$$$$
>  <ENTRY_SMILES>
COc1cccc2c1C(=O)c1c(O)c3c(c(O)c1C2=O)C[C@@](O)(C=O)C[C@@H]3O[C@H]1C[C@H](N)[C@H](O)[C@H](C)O1

>  <pEC50>
5.39

$$$$

# pEC50 (compound: COc1cccc2c1C(=O)c1c(O)c3c(c(O)c1C2=O)C[C@@](O)(C(=O)CCc1ccccc1)C[C@@H]3O[C@H]1C[C@H](N)[C@H](O)[C@H](C)O1 ) is 5.82
